Kindly state MIC for each of the entries shown.
# Test system: Candida albicans
# assayMethodText: Antifungal activity against fluconazole-resistant Candida albicans 17 measured after 24 hrs by micro-broth dilution assay
# Type: functional
Supply the numeric figure in µg/mL, leaving out any unit text.

Exercise: # input compound: Cc1ccc(C[Se]C(Cn2ccnc2)c2ccc(Cl)cc2Cl)cc1C (configuration not stated) ; wanted: its MIC
Key: 8

Exercise: # input compound: COc1cc(C[Se]C(Cn2ccnc2)c2ccc(F)cc2F)cc(OC)c1 (configuration not stated) ; wanted: its MIC
Key: 8

Exercise: # input compound: COc1ccc(C[Se]C(Cn2ccnc2)c2ccc(F)cc2F)cc1 (configuration not stated) ; wanted: its MIC
Key: 8

Exercise: # input compound: Clc1ccc(C(Cn2ccnc2)[Se]Cc2ccc(Br)cc2)c(Cl)c1 (configuration not stated) ; wanted: its MIC
Key: 8

Exercise: # input compound: Clc1ccc(C[Se]C(Cn2ccnc2)c2ccc(Cl)cc2Cl)cc1 (configuration not stated) ; wanted: its MIC
Key: 8

Exercise: # input compound: Fc1ccc(C(Cn2ccnc2)[Se]Cc2ccc(Cl)cc2)c(F)c1 (configuration not stated) ; wanted: its MIC
Key: 8

Exercise: # input compound: Fc1ccc(C(Cn2ccnc2)[Se]Cc2ccccc2)c(F)c1 (configuration not stated) ; wanted: its MIC
Key: 8

Attribution: ChEMBL document CHEMBL4765323
